A collection of molecules and their measured viability, T/C
Tested on: 922993-354-T-J3-PDC complex spheroids, viability
Test: Anticancer human tumor 922993-354-T-J3-PDC patient-derived endometrial carcinoma cell line growth inhibition [GQUAD]
Details: second compound 0.1 µM; first compound 0.316 µM; stronger effect = lower value
Excerpt: DNA G-quadruplex Stabilizer Agents in Combinations in Complex Spheroids A high-throughput screen of multi-cell type tumor spheroids was designed to identify active combinations of DNA G-quadruplex stabilizer agents and targeted small molecules. […] Compounds. […] If the clinical Cmax for an agent had not been determined, the highest concentration tested was 10 microM. […]
The response must be a number in % with no trailing unit.

Consider the following illustrative entries.
{"Molecule": "CC(C)n1c(=O)n(C)c2cnc3cc(F)c(-c4ccc(OCCCN5CCCCC5)nc4)cc3c21 + CN(C)c1ccc(Nc2c3ccc(NC(=O)CCN4CCCC4)cc3nc3cc(NC(=O)CCN4CCCC4)ccc23)cc1", "Observed result": 101}
{"Molecule": "CC1COCCN1c1cc(C2(S(C)(=N)=O)CC2)nc(-c2ccnc3[nH]ccc23)n1 (stereo not drawn) + Cc1[nH]c2ccc(F)cc2c1-c1nc2c3cccnc3c3ncccc3c2[nH]1", "Observed result": 138}

Ask | Form field: reported viability, T/C of CC(C)(O)C1CCC(Nc2ccc3ncc(-c4cccc(C(F)(F)F)c4)n3n2)CC1 (stereo not drawn) + Cc1[nH]c2ccc(F)cc2c1-c1nc2c3cccnc3c3ncccc3c2[nH]1
Reply | 99.1

---

A collection of compounds and their measured viability, T/C
Test system: 922993-354-T-J3-PDC complex spheroids, viability
Assay: Anticancer human tumor 922993-354-T-J3-PDC cell line growth inhibition [GQUAD];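 note: spheroids exposed to compounds for seven days; 100% = DMSO vehicle control viability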
Conditions: second compound 0.0316 µM; first compound 0.0316 µM; stronger effect = lower value
The response must be a number in % with no trailing unit.

Consider the following illustrative entries.
{"Compound": "COc1cccc2c1C(=O)c1c(O)c3c(c(O)c1C2=O)CC(O)(C(=O)CO)CC3OC1CC(N)C(O)C(C)O1 (stereo unspecified) + Cc1cnc(CNC(=O)c2c(=O)c3ccc(N4CCCN(C)CC4)nc3n3c2sc2ccccc23)cn1", "Assayed system": "922993-354-T-J3-PDC complex spheroids, viability", "Measured metric": "viability, T/C", "Units symbol": "%", "Observed result": 83.7}
{"Compound": "CC1COCCN1c1cc(C2(O)CC3CCC(C2)O3)c2cnn(-c3ccn[nH]3)c2n1 (stereo unspecified) + CN(C)c1ccc(Nc2c3ccc(NC(=O)CCN4CCCC4)cc3nc3cc(NC(=O)CCN4CCCC4)ccc23)cc1", "Assayed system": "922993-354-T-J3-PDC complex spheroids, viability", "Measured metric": "viability, T/C", "Units symbol": "%", "Observed result": 124}
{"Compound": "Cn1ncnc1[C@H]1c2n[nH]c(=O)c3cc(F)cc(c23)N[C@@H]1c1ccc(F)cc1 + Cc1cnc(CNC(=O)c2c(=O)c3ccc(N4CCCN(C)CC4)nc3n3c2sc2ccccc23)cn1", "Assayed system": "922993-354-T-J3-PDC complex spheroids, viability", "Measured metric": "viability, T/C", "Units symbol": "%", "Observed result": 72.8}
{"Compound": "CC(C)(O)C1CCC(Nc2ccc3ncc(-c4cccc(C(F)(F)F)c4)n3n2)CC1 (stereo unspecified) + Cc1cnc(CNC(=O)c2c(=O)c3ccc(N4CCCN(C)CC4)nc3n3c2sc2ccccc23)cn1", "Assayed system": "922993-354-T-J3-PDC complex spheroids, viability", "Measured metric": "viability, T/C", "Units symbol": "%", "Observed result": 89.5}
{"Compound": "CC(C)n1c(=O)n(C)c2cnc3cc(F)c(-c4ccc(OCCCN5CCCCC5)nc4)cc3c21 + CN(C)c1ccc(Nc2c3ccc(NC(=O)CCN4CCCC4)cc3nc3cc(NC(=O)CCN4CCCC4)ccc23)cc1", "Assayed system": "922993-354-T-J3-PDC complex spheroids, viability", "Measured metric": "viability, T/C", "Units symbol": "%", "Observed result": 118}
{"Compound": "CCCS(=O)(=O)Nc1ccc(F)c(C(=O)c2c[nH]c3ncc(-c4ccc(Cl)cc4)cc23)c1F + Cc1cnc(CNC(=O)c2c(=O)c3ccc(N4CCCN(C)CC4)nc3n3c2sc2ccccc23)cn1", "Assayed system": "922993-354-T-J3-PDC complex spheroids, viability", "Measured metric": "viability, T/C", "Units symbol": "%", "Observed result": 93.5}
{"Compound": "Cc1cccc(N(C)C(=O)C2C(O)CCN2c2nc(C)cc(C(F)(F)F)c2C#N)c1 (stereo unspecified) + Cc1[nH]c2ccc(F)cc2c1-c1nc2c3cccnc3c3ncccc3c2[nH]1", "Assayed system": "922993-354-T-J3-PDC complex spheroids, viability", "Measured metric": "viability, T/C", "Units symbol": "%", "Observed result": 111}
{"Compound": "COc1ccc([C@@H](O)c2cc(-c3ncnc4cc(N5CCOCC5)ccc34)c(F)cc2Cl)nn1 + Cc1cnc(CNC(=O)c2c(=O)c3ccc(N4CCCN(C)CC4)nc3n3c2sc2ccccc23)cn1", "Assayed system": "922993-354-T-J3-PDC complex spheroids, viability", "Measured metric": "viability, T/C", "Units symbol": "%", "Observed result": 84.2}

Ask | Observed viability, T/C on 922993-354-T-J3-PDC complex spheroids, viability for Nc1ccn(C2OC(CO)C(O)C2(F)F)c(=O)n1 (stereo unspecified) + Cc1cnc(CNC(=O)c2c(=O)c3ccc(N4CCCN(C)CC4)nc3n3c2sc2ccccc23)cn1 , please.
Reply | 29.4

Ask | One more compound: CC(C)(O)C1CCC(Nc2ccc3ncc(-c4cccc(C(F)(F)F)c4)n3n2)CC1 (stereo unspecified) + CN(C)c1ccc(Nc2c3ccc(NC(=O)CCN4CCCC4)cc3nc3cc(NC(=O)CCN4CCCC4)ccc23)cc1
Reply | 78.5

Ask | One more compound: CC1COCCN1c1cc(C2(S(C)(=N)=O)CC2)nc(-c2ccnc3[nH]ccc23)n1 (stereo unspecified) + CN(C)c1ccc(Nc2c3ccc(NC(=O)CCN4CCCC4)cc3nc3cc(NC(=O)CCN4CCCC4)ccc23)cc1
Reply | 110

Ask | One more compound: Nc1ccn(C2OC(CO)C(O)C2(F)F)c(=O)n1 (stereo unspecified) + CN(C)c1ccc(Nc2c3ccc(NC(=O)CCN4CCCC4)cc3nc3cc(NC(=O)CCN4CCCC4)ccc23)cc1
Reply | 13.6

Ask | One more compound: Cc1[nH]c2ccccc2c1CCNCc1ccc(/C=C/C(=O)NO)cc1 + Cc1[nH]c2ccc(F)cc2c1-c1nc2c3cccnc3c3ncccc3c2[nH]1
Reply | 77.6

Ask | One more compound: CC(=O)O[C@H]1C(=O)[C@@]2(C)[C@H]([C@H](OC(=O)c3ccccc3)[C@]3(O)C[C@H](OC(=O)[C@H](O)[C@@H](NC(=O)c4ccccc4)c4ccccc4)C(C)=C1C3(C)C)[C@]1(OC(C)=O)CO[C@@H]1C[C@@H]2O + Cc1[nH]c2ccc(F)cc2c1-c1nc2c3cccnc3c3ncccc3c2[nH]1
Reply | 109

Ask | One more compound: CC[C@@]1(O)C(=O)OCc2c1cc1n(c2=O)Cc2cc3c(CN(C)C)c(O)ccc3nc2-1 + Cc1[nH]c2ccc(F)cc2c1-c1nc2c3cccnc3c3ncccc3c2[nH]1
Reply | 105

Ask | One more compound: O=c1[nH]cc(F)c(=O)[nH]1 + CN(C)c1ccc(Nc2c3ccc(NC(=O)CCN4CCCC4)cc3nc3cc(NC(=O)CCN4CCCC4)ccc23)cc1
Reply | 82.1

Ask | One more compound: Cn1ncnc1[C@H]1c2n[nH]c(=O)c3cc(F)cc(c23)N[C@@H]1c1ccc(F)cc1 + Cc1[nH]c2ccc(F)cc2c1-c1nc2c3cccnc3c3ncccc3c2[nH]1
Reply | 88

---

A collection of compounds and their measured viability, T/C
System: 922993-354-T-J3-PDC complex spheroids, viability
Experiment: Anticancer human tumor 922993-354-T-J3-PDC cell line growth inhibition [GQUAD];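 note: spheroids exposed to compounds for seven days; 100% = DMSO vehicle control viability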
Settings: second compound 1 µM; first compound 0.316 µM; stronger effect = lower value
The response must be a number in % with no trailing unit.

Consider the following illustrative entries.
{"Compound": "CCCS(=O)(=O)Nc1ccc(F)c(C(=O)c2c[nH]c3ncc(-c4ccc(Cl)cc4)cc23)c1F + Cc1[nH]c2ccc(F)cc2c1-c1nc2c3cccnc3c3ncccc3c2[nH]1", "viability, T/C / %": 61.9}
{"Compound": "O=C(c1cc(Cc2n[nH]c(=O)c3ccccc23)ccc1F)N1CCN(C(=O)C2CC2)CC1 + Cc1cnc(CNC(=O)c2c(=O)c3ccc(N4CCCN(C)CC4)nc3n3c2sc2ccccc23)cn1", "viability, T/C / %": 37.2}
{"Compound": "CCc1c2c(nc3ccc(O)cc13)-c1cc3c(c(=O)n1C2)COC(=O)[C@]3(O)CC + Cc1[nH]c2ccc(F)cc2c1-c1nc2c3cccnc3c3ncccc3c2[nH]1", "viability, T/C / %": 32.1}

Ask | Form field: reported viability, T/C of COc1ccc([C@@H](O)c2cc(-c3ncnc4cc(N5CCOCC5)ccc34)c(F)cc2Cl)nn1 + Cc1[nH]c2ccc(F)cc2c1-c1nc2c3cccnc3c3ncccc3c2[nH]1
Reply | 72.2

Ask | One more compound: Cc1[nH]c2ccccc2c1CCNCc1ccc(/C=C/C(=O)NO)cc1 + Cc1cnc(CNC(=O)c2c(=O)c3ccc(N4CCCN(C)CC4)nc3n3c2sc2ccccc23)cn1
Reply | 31.2

Ask | One more compound: Cc1cccc(N(C)C(=O)C2C(O)CCN2c2nc(C)cc(C(F)(F)F)c2C#N)c1 (stereo unspecified) + Cc1[nH]c2ccc(F)cc2c1-c1nc2c3cccnc3c3ncccc3c2[nH]1
Reply | 104
